Source: paper PMC12390684

Listed below: IC50 values for each entry.
- STUDY_TARGET: IN-GCN2 interaction (6xHis-IN / GST-GCN2) (UniProt P04585+Q9P2K8)
- Sequence (Q9P2K8 192-1024, other chains not shown): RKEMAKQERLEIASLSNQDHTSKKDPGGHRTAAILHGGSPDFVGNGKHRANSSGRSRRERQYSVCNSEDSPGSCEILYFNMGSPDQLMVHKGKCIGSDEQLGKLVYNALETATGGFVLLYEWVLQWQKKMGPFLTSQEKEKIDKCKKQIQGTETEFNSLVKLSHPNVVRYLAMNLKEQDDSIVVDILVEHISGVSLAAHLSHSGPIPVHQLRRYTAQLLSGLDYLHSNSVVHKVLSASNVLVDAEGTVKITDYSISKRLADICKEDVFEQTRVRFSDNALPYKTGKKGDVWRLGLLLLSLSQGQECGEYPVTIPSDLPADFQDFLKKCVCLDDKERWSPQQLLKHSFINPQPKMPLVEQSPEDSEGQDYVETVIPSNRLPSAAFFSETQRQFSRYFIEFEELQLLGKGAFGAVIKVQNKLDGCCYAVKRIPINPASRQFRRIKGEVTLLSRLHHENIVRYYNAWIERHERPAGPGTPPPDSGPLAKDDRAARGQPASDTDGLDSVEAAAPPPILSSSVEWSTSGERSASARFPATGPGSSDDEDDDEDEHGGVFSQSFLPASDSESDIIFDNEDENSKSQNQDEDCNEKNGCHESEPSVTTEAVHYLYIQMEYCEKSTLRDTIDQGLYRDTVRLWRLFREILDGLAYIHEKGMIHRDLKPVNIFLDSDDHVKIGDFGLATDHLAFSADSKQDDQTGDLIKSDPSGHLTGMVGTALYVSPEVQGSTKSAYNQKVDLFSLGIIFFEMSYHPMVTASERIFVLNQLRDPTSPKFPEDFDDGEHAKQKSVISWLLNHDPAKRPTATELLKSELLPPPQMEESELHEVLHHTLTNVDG
- ASSAY_EXPLANATION: biochemical
- Assay type: binding, HIV-1 IN; human GCN2
- ASSAY_CONDITIONS: IC50, inhibition of IN-GCN2 interaction, SAR study, fresh dilutions from powder; at least three independent experiments
QUANTITY_KIND: IC50 (µM)

• S=c1[nH]c2ccccc2nc1NCc1ccccc1 = 83
• N#CCCNc1ccc(NCCC#N)c2c1C(=O)c1c(O)ccc(O)c1C2=O = 16

====

- STUDY_TARGET: IN-GCN2 interaction (6xHis-IN / GST-GCN2) (UniProt P04585+Q9P2K8)
- ASSAY_EXPLANATION: biochemical
- Type: binding, HIV-1 IN; human GCN2
- ASSAY_CONDITIONS: screen, single dose 100 µM, single replicate; residual AlphaLISA signal normalized to DMSO control
QUANTITY_KIND: IN-GCN2 interaction (%)

* Nc1ncnc2c1ncn2[C@@H]1O[C@H](COP(=O)(O)O)[C@@H](O)[C@H]1O [NSC20264] | 82.61%
* CCC(C(=O)C(C)C(O)C(C)CCc1ccc(C)c(O)c1C(=O)O)C1OC(CC)(C2CCC(O)(CC)C(C)O2)CC1C (stereo not drawn) [NSC177406] | 94.24%
* CO[C@@H]1C[C@@H](C[C@H]2CC[C@H](C)[C@H]([C@@H](C)C(=O)[O-])O2)O[C@]2(O[C@](C)([C@H]3CC[C@@](C)([C@@H]4O[C@@H]([C@H]5O[C@@](O)(CO)[C@H](C)C[C@@H]5C)C[C@@H]4C)O3)C[C@H]2C)[C@@H]1C.[Na+] [NSC292567] | 95.66%
* COc1cc(O)c(C(C)=O)c2c1C=CC(C)(C)O2 [NSC14135] | 87.24%
* COC1=CC23CCCN2CCc2cc4c(cc2C3C1O)OCO4 (stereo not drawn) [NSC128487] | 118.57%
* COc1ccc2c3c([nH]c2c1)[C@H](C=C(C)C)N1C(=O)[C@@H]2CCCN2C(=O)[C@@H]1C3 [NSC719655] | 66.56%
* CC1=C(O)C(=O)C(C2=C(O)C(=O)C(C)=C(O)C2=O)=C(O)C1=O [NSC88466] | 52.93%
* NC(=O)NCCC[C@H](N)C(=O)O [NSC27425] | 90.90%
* COc1cc2c(cc1O)C[C@H]1c3c(cc(OC)c(OC)c3-2)CCN1C [NSC785189] | 31.39%
